Each recorded value in this set is attributed to ChEMBL document CHEMBL1122393.

# Test system: Rattus norvegicus
# Run Description: In vivo antiantidiuretic potency of compound was determined in rats
# Assay type: functional, organism-based
# Conditions Used: Urine, read-out: pA2 (converted)
Quantity: Kb (µM)
Give just the numeric value; µM need not be written.

Q: Find the recorded Kb belonging to "CC(C)C[C@@H]1NC(=O)[C@H](Cc2ccccc2)NC(=O)[C@@H](Cc2ccccc2)NC(=O)CC2(CCCCC2)SSC[C@@H](C(=O)N2CCC[C@H]2C(=O)N[C@@H](CCCN=C(N)N)C(=O)NCC(N)=O)NC(=O)[C@H](CC(N)=O)NC1=O" and report it.
Result: 0.851

====

# Kb values compiled below
# Test system: Rattus norvegicus
# Run Description: In vivo antiantidiuretic potency of compound was determined in rats
# Format: functional, organism-based
# Conditions Used: Urine, read-out: pA2 (converted)
// return numeric value only (unit: nM, not printed)

Take a look at these entries with their results.
Substance Smiles: C[C@@H]1NC(=O)[C@H](Cc2ccccc2)NC(=O)[C@@H](Cc2ccccc2)NC(=O)CC2(CCCCC2)SSC[C@@H](C(=O)N2CCC[C@H]2C(=O)N[C@@H](CCCN=C(N)N)C(=O)NCC(N)=O)NC(=O)[C@H](CC(N)=O)NC1=O
Kb, nM: 30.2
--
Substance Smiles: CCCC[C@@H]1NC(=O)[C@H](Cc2ccccc2)NC(=O)[C@@H](Cc2ccccc2)NC(=O)CC2(CCCCC2)SSC[C@@H](C(=O)N2CCC[C@H]2C(=O)N[C@@H](CCCN=C(N)N)C(=O)NCC(N)=O)NC(=O)[C@H](CC(N)=O)NC1=O
Kb, nM: 75.9
--
Substance Smiles: NC(=O)CNC(=O)[C@H](CCCN=C(N)N)NC(=O)[C@@H]1CCCN1C(=O)[C@@H]1CSSC2(CCCCC2)CC(=O)N[C@H](Cc2ccccc2)C(=O)N[C@@H](Cc2ccccc2)C(=O)N[C@@H](CC2CCCCC2)C(=O)N[C@@H](CC(N)=O)C(=O)N1
Kb, nM: 64.6

Q: Please state recorded Kb (tested on Rattus norvegicus) of "CCC[C@@H]1NC(=O)[C@H](Cc2ccccc2)NC(=O)[C@@H](Cc2ccccc2)NC(=O)CC2(CCCCC2)SSC[C@@H](C(=O)N2CCC[C@H]2C(=O)N[C@@H](CCCN=C(N)N)C(=O)NCC(N)=O)NC(=O)[C@H](CC(N)=O)NC1=O"
Result: 102

====

As shown below, each of these molecules has a reported Kb value.
# Test system: Rattus norvegicus
# Run Description: In vivo antiantidiuretic potency of compound was determined in rats
# Type: functional, organism-based
# Conditions Used: Urine, read-out: pA2 (converted)
Numbered stars: 1 amine (or outer) side, 2 acyl side, 3 side chain; on linkers, the order of the positions; unused ones are H or OH. Bridge positions count the residues as written; N and C are the ends. Square brackets hold non-standard residues; d marks the D form. Peptide text beside a SMILES is read from it. X1 = O=C(CC1(S[*:2])CCCCC1)[*:1]
Could you give me the number in nM? Just the number is fine.

Molecule: CC[C@H](C)[C@@H]1NC(=O)[C@H](Cc2ccccc2)NC(=O)[C@@H](Cc2ccccc2)NC(=O)CC2(CCCCC2)SSC[C@@H](C(=O)N2CCC[C@H]2C(=O)N[C@@H](CCCN=C(N)N)C(=O)NCC(N)=O)NC(=O)[C@H](CC(N)=O)NC1=O ([dF]FINCPRG-NH2; linker N-5 via X1)
Unit Text: nM
Measured Value: 5.75

Q: Quick one: Kb of "C[C@@H](O)[C@@H]1NC(=O)[C@H](Cc2ccccc2)NC(=O)[C@@H](Cc2ccccc2)NC(=O)CC2(CCCCC2)SSC[C@@H](C(=O)N2CCC[C@H]2C(=O)N[C@@H](CCCN=C(N)N)C(=O)NCC(N)=O)NC(=O)[C@H](CC(N)=O)NC1=O" ?
Result: 24

====

# System: Rattus norvegicus
# Run Description: In vivo antiantidiuretic potency of compound was determined in rats
# Format: functional, organism-based
# Conditions Used: Urine, read-out: pA2 (converted)
Quantity: Kb (nM)
Respond numerically; units are nM and should not be typed.

Use these answered entries as a reference point.
Substance Smiles: NC(=O)CC[C@@H]1NC(=O)[C@H](Cc2ccccc2)NC(=O)[C@@H](Cc2ccccc2)NC(=O)CC2(CCCCC2)SSC[C@@H](C(=O)N2CCC[C@H]2C(=O)N[C@@H](CCCN=C(N)N)C(=O)NCC(N)=O)NC(=O)[C@H](CC(N)=O)NC1=O
Measured Value: 61.7
--
Substance Smiles: CC[C@@H]1NC(=O)[C@H](Cc2ccccc2)NC(=O)[C@@H](Cc2ccccc2)NC(=O)CC2(CCCCC2)SSC[C@@H](C(=O)N2CCC[C@H]2C(=O)N[C@@H](CCCN=C(N)N)C(=O)NCC(N)=O)NC(=O)[C@H](CC(N)=O)NC1=O
Measured Value: 11
--
Substance Smiles: NC(=O)CNC(=O)[C@H](CCCN=C(N)N)NC(=O)[C@@H]1CCCN1C(=O)[C@@H]1CSSC2(CCCCC2)CC(=O)N[C@H](Cc2ccccc2)C(=O)N[C@@H](Cc2ccccc2)C(=O)N[C@@H](Cc2ccccc2)C(=O)N[C@@H](CC(N)=O)C(=O)N1
Measured Value: 851

Now consider the entry below.
Q: Any idea what Kb was measured for "NC(=O)CNC(=O)[C@H](CCCN=C(N)N)NC(=O)[C@@H]1CCCN1C(=O)[C@@H]1CSSC2(CCCCC2)CC(=O)N[C@H](Cc2ccccc2)C(=O)N[C@@H](Cc2ccccc2)C(=O)NCC(=O)N[C@@H](CC(N)=O)C(=O)N1" ?
Result: 1410
